Observed Ki for Human α-thrombin (Homo sapiens, UniProt P00734), reported per entry below.
Express the result in nM but write the number alone.

Fill in: Ki on Human α-thrombin (Homo sapiens, UniProt P00734), entry `Cc1ccc(NS(=O)(=O)c2cccc(I)c2)c(=O)n1CC(=O)N[C@@H](CCONC(=N)N)C(=O)c1nc2ccccc2s1`
17

Answer briefly: Ki recorded on Human α-thrombin (Homo sapiens, UniProt P00734) for `Cc1ccc(NS(=O)(=O)Cc2ccccc2I)c(=O)n1CC(=O)N[C@@H](CCONC(=N)N)C(=O)c1nc2ccccc2s1`
75

Under Human α-thrombin (Homo sapiens, UniProt P00734), report Ki for `Cc1ccc(NS(=O)(=O)c2cccc(I)c2)c(=O)n1CC(=O)N[C@@H](CCONC(=N)N)C(=O)c1nccs1`
45

FYI, the data here is from patent US6420397B1.
